Ref: ChEMBL document CHEMBL1201862

tested on: MDA-MB-435; test: NCI tumour cell line growth inhibition, 48 h
The source made the active and inactive calls. Cut-off read from the data, not from the text of the source: active = GI50 up to about 1.1 µM and inactive = higher.
test_readout: GI50

INPUT: Can you share its GI50? I mean this compound: C[N+]12C=CC=C1C(N1CCCC1)c1scc(-c3ccccc3)c12 (stereo not given)
OUTPUT: 36.2 µM (inactive)

INPUT: Can you share its GI50? I mean this compound: `C=C(CCC/C(C)=C/C=C/[C@]1(C)CCCc2ccoc21)CC(=O)O`
OUTPUT: > 100 µM (inactive)

INPUT: Can you share its GI50? I mean this compound: N#CC1C(=O)Nc2sc(C(=O)c3ccc(Br)cc3)c(N)c2C12CCCCC2 (stereo not given)
OUTPUT: 18.9 µM (inactive)

INPUT: Can you share its GI50? I mean this compound: CC1=C(C(=O)OCCO[N+](=O)[O-])C(c2ccccc2[N+](=O)[O-])C(C(=O)OC(C)C)=C(C)N1 (stereo not given)
OUTPUT: 15 µM (inactive)

INPUT: Can you share its GI50? I mean this compound: `COC(=O)c1sc2nc(Nc3ccccc3)/c(=N\c3ccccc3)sc2c1C`
OUTPUT: > 100 µM (inactive)

INPUT: Can you share its GI50? I mean this compound: `Cc1csc(NNC(N)=O)n1`
OUTPUT: > 100 µM (inactive)

INPUT: Can you share its GI50? I mean this compound: `COc1ccc(/C=N/n2c(=O)[nH]c3ccccc3c2=O)cc1`
OUTPUT: > 100 µM (inactive)

INPUT: Can you share its GI50? I mean this compound: C/C=C\C(CC(=O)NCCC1CN(C(=O)c2ccccc2)c2ccccc21)CC(=O)OC (stereo not given)
OUTPUT: > 100 µM (inactive)

INPUT: Can you share its GI50? I mean this compound: `COc1ccc(N(C(=O)NCCO)c2ccccc2)cc1`
OUTPUT: > 100 µM (inactive)

INPUT: Can you share its GI50? I mean this compound: `c1ccc(CN2COc3c(ccc4c5c(ccc34)CN(Cc3ccccc3)CO5)C2)cc1`
OUTPUT: > 100 µM (inactive)

###

test system: SNB-75; test: NCI tumour cell line growth inhibition, 48 h
Activity calls are given as the source filed them. No stated cut-off is given here; in the data, active = GI50 up to about 1.1 µM and inactive = higher.
I'd appreciate it if you could supply GI50 values for the items below.

INPUT: Can you share its GI50? I mean this compound: `COc1ccc2c3c(c(=O)n(C)c2c1OC)C=CC(C)(C)O3`
OUTPUT: 2.78 µM (inactive)

INPUT: Can you share its GI50? I mean this compound: `c1ccc(/N=C(\N2CCOCC2)N(CCN2CCOCC2)c2ccccc2)cc1`
OUTPUT: > 100 µM (inactive)

INPUT: Can you share its GI50? I mean this compound: `CCOC(=O)/C(=C\NC(C)(C)C)c1nc2ccccc2[nH]1`
OUTPUT: 23.7 µM (inactive)

INPUT: Can you share its GI50? I mean this compound: `CCCC(=O)OC[n+]1ccc2c(C)c3[nH]c4ccc(OC)cc4c3c(C)c2c1`
OUTPUT: 1.16 µM (inactive)

INPUT: Can you share its GI50? I mean this compound: CCO/S(=N/S(=O)(=O)c1ccccc1)c1ccccc1[N+](=O)[O-] (stereo not given)
OUTPUT: > 100 µM (inactive)

INPUT: Can you share its GI50? I mean this compound: Cc1ccc(C)c(NC(=O)C(Cc2c[nH]c3ccccc23)NC(=O)OCc2ccccc2)c1 (stereo not given)
OUTPUT: 11.3 µM (inactive)

INPUT: Can you share its GI50? I mean this compound: `COc1cc2c(cc1O)[C@H](Cc1ccc(Oc3cc(C[C@H]4c5cc(OC)c(OC)cc5CCN4C)ccc3OC)cc1)NCC2`
OUTPUT: 6.56 µM (inactive)

INPUT: Can you share its GI50? I mean this compound: `O=S1(=O)OCCOS(=O)(=O)C1I`
OUTPUT: > 100 µM (inactive)

INPUT: Can you share its GI50? I mean this compound: `COc1ccc(C=O)cc1Oc1ccc(C[C@H]2c3c(cc(OC)c4c3Oc3cc5c(cc3O4)CCN(C)C5=O)CCN2C)cc1`
OUTPUT: 7.29 µM (inactive)

INPUT: Can you share its GI50? I mean this compound: COC1=CC(C)C2C[C@H]3O[C@H](O)C[C@H]4C(C)C(=O)C(O)C([C@@]2(C)C1=O)[C@@]34C (stereo not given in full)
OUTPUT: > 100 µM (inactive)

INPUT: Can you share its GI50? I mean this compound: CC1(C)COC(C2(C)C(=O)C=C(c3ccccc3)c3ccccc32)=N1 (stereo not given)
OUTPUT: 33.4 µM (inactive)

INPUT: Can you share its GI50? I mean this compound: `COc1ccccc1/N=N/c1c(O)c(S(=O)(=O)O)cc2cc(S(=O)(=O)O)ccc12`
OUTPUT: > 100 µM (inactive)

INPUT: Can you share its GI50? I mean this compound: `Clc1cc2nc[nH]c2cc1Cl`
OUTPUT: 18.3 µM (inactive)

INPUT: Can you share its GI50? I mean this compound: COc1ccc(N2C(=O)C3CC4=CC(=O)C[C@H]4[C@H]32)cc1 (stereo not given in full)
OUTPUT: 93.5 µM (inactive)

INPUT: Can you share its GI50? I mean this compound: `COc1ccc(CCN2CCc3c(C)c(C#N)c4nc5ccccc5n4c32)cc1OC`
OUTPUT: 24.8 µM (inactive)

INPUT: Can you share its GI50? I mean this compound: `CN(CC(=O)O)S(=O)(=O)c1ccc(F)cc1`
OUTPUT: > 100 µM (inactive)

INPUT: Can you share its GI50? I mean this compound: `O=[N+]([O-])c1cccc2nc3ccccc3c(NCCC[N+]3([O-])CCCCC3)c12`
OUTPUT: 0.416 µM (active)

INPUT: Can you share its GI50? I mean this compound: `C/C(=N\NC(N)=S)c1cccs1.OB(O)c1ccccc1`
OUTPUT: > 100 µM (inactive)

INPUT: Can you share its GI50? I mean this compound: `c1ccc(C2=NN(c3nc4ccccc4s3)C3(CCCCC3)N2)nc1`
OUTPUT: 25.6 µM (inactive)

INPUT: Can you share its GI50? I mean this compound: `Cc1ccc(-c2c(C#N)c(-c3ccc(Cl)cc3)c(C#N)c(=O)n2NS(=O)(=O)c2ccc(C)cc2)cc1`
OUTPUT: 30.1 µM (inactive)
